- Measurement Protocol: NCI Yeast Anticancer Drug Screen. Data for the bub3 strain (AID 167)
- Particulars: S. cerevisiae bub3 mutant strain, at 50.0 µM
About 79,000 compounds went through this panel and 15% of them were active in at least one assay; those are over-represented in the sample as a whole. Calls of active or inactive are those of the source. Cut-off read from the data, not from the text of the source: active = growth inhibition above about 70%; inactive = the rest.
The reply should name one outcome from active, inactive

Please review the entries below; each comes with its answer.
Molecule: Cc1cc(N(CCCl)CCCl)ccc1C=Nc1ccc(-c2csc(COc3ccccc3)n2)c(Cl)c1
Label Value: active
//
Molecule: CCC1(O)C(=O)OCc2c1cc1n(c2=O)Cc2cc3ccc(C#N)cc3nc2-1 (stereo not drawn)
Label Value: inactive
//
Molecule: Cn1cc(NC(=O)c2cc(NC(=O)CN=C(N)N)cn2C)cc1C(=O)NCCC(=N)N
Label Value: active
//
Molecule: c1ccc2c[n+](CCCCCCCCCC[n+]3ccc4ccccc4c3)ccc2c1
Label Value: active
//
Molecule: CC(C)[O-].CC(C)[O-].[O-]c1cccc2cccnc12.[O-]c1cccc2cccnc12.[Ti+4]
Label Value: inactive
//
Molecule: O=P1(NCCCl)OC(c2ccccc2)=CCN1CCCl (stereo not drawn)
Label Value: active
//
Molecule: Oc1c(Cl)cc(Cl)cc1Cl
Label Value: active
//
Molecule: O=C(Nc1ccccc1)OC(C[N+](=O)[O-])C(Cl)(Cl)Cl (stereo not drawn)
Label Value: active

Asked: In this assay, the call recorded for ClCCN(CCCl)c1ccc(C2N(Cc3ccc(N(CCCl)CCCl)cc3Cl)CCCN2Cc2ccc(N(CCCl)CCCl)cc2Cl)cc1 was what?
Given back: inactive

Asked: Next up: Oc1c(Cl)c(Cl)c(Cl)c(Cl)c1Cl.[Cu+2]
Given back: active

====

- Measurement Protocol: NCI Yeast Anticancer Drug Screen. Data for the mlh1 rad18 strain (AID 175)
- Particulars: S. cerevisiae mlh1 rad18 strain growth inhibition; at 50.0 µM (retest, dose inferred, filed as 5.0); active compounds read high
This is part of a sample that, as a whole, favours compounds with a hit. Of some 79,000 tested, about 15% had one in any assay.
Measurement Kind: growth inhibition (%)
Respond numerically; units are % and should not be typed.

Compound: O=c1ccn(C2OC(CO)C(O)C2O)c(=O)[n]1[Hg][c]1ccccc1 (stereo unspecified)
Readout Unit: %
growth inhibition: 98
--
Compound: CC(C)(C)[CH2][Hg][Cl]
Readout Unit: %
growth inhibition: 99
--
Compound: O=[N+]([O-])c1cc(S(=O)(=O)F)ccc1S
Readout Unit: %
growth inhibition: 92
--
Compound: O=C1C(Br)=CC2(C=C1Br)CCNc1c(O)c3c4c(c12)=NCCC=4C=N3
Readout Unit: %
growth inhibition: 75
--
Compound: S=P(Nc1ccccc1)(Oc1ccccc1)c1ccccc1 (stereo unspecified)
Readout Unit: %
growth inhibition: 88
--
Compound: COC(COC(N)=O)C1=C(N2CC2)C(=O)C(C)=C(N2CC2)C1=O (stereo unspecified)
Readout Unit: %
growth inhibition: 97
--
Compound: O=c1c2ccccc2[se]n1-c1ccccc1
Readout Unit: %
growth inhibition: 62
--
Compound: CC[C@@]1(O)C(=O)OCc2c1cc1n(c2=O)Cc2cc3cc4c(cc3nc2-1)OCO4
Readout Unit: %
growth inhibition: 89
--
Compound: S=C1NC2(CCCCC2)NC12CCCCC2
Readout Unit: %
growth inhibition: 49
--
Compound: CCCCC1C(=O)NC(=S)N(c2ccccc2)C1=O (stereo unspecified)
Readout Unit: %
growth inhibition: 1

Asked: Please report the recorded growth inhibition for CS(=O)(=O)OCCN(CCOS(C)(=O)=O)c1ccc(C=O)cc1 .
Given back: 95

Asked: Same for c1ccc(CCNCc2ccccc2)cc1
Given back: 6

Asked: Try this compound too: CCC1(O)C(=O)OCc2c1cc(C)[nH]c2=O (stereo unspecified)
Given back: -85

Asked: Moving on to O=C(O)C1C2c3cccc4cccc(c34)C12 (stereo unspecified)
Given back: 81

Asked: Similarly, CCCCCCCCCCCCCCCCCC(=O)[O][Hg][c]1ccccc1 ?
Given back: 100

====

- Measurement Protocol: NCI Yeast Anticancer Drug Screen. Data for the mlh1 rad18 strain (AID 175)
- Particulars: S. cerevisiae mlh1 rad18 strain growth inhibition; at 50.0 µM; active compounds read high
The panel holds about 79,000 compounds, 15% with a hit somewhere; the sample as a whole holds those more often.
Measurement Kind: growth inhibition (%)
Just the number please, in %, no unit attached.

Molecule: Cc1ccccc1NC(=O)CBr
growth inhibition, %: 98.3

Asked: growth inhibition for O=C(CCN1CC1)NCCc1ccccc1 ?
Given back: 93.7

Asked: Moving on to CC[C@](O)(C(=O)O)c1cc2n(c(=O)c1CO)Cc1cc3ccccc3nc1-2
Given back: 96.5

Asked: Would you mind doing Cc1ccc(NP(=O)(Oc2ccccc2)N(CCCl)CCCl)cc1 (configuration not stated) as well?
Given back: 54.6

Asked: Another molecule: O=C(O)CP(=O)(c1ccccc1)c1ccccc1.O=C(O)CP(=O)(c1ccccc1)c1ccccc1.[Cd]
Given back: 57.8

Asked: Note, next up: CC#N.FC(F)(F)C#CC(F)(F)F.FC(F)(F)C#CC(F)(F)F.FC(F)(F)C#CC(F)(F)F.[W]
Given back: 99.3

Asked: Entry to check: O=P(Oc1ccc(Cl)cc1)(Oc1ccc(Cl)cc1)N1CC1
Given back: 32.1

====

- Measurement Protocol: NCI Yeast Anticancer Drug Screen. Data for the bub3 strain (AID 167)
- Particulars: S. cerevisiae bub3 mutant strain, at 50.0 µM, active compounds read high
This is part of a sample that, as a whole, favours compounds with a hit. Of some 79,000 tested, about 15% had one in any assay.
As shown below, each of these molecules has a reported growth inhibition value.
Note: unit % is implicit; provide only the numeric part.

Study these solved cases before continuing.
Molecule: COc1cc2c(c(OC)c1OC)-c1ccc(O)c(=O)cc1C(NC(C)=O)CC2 (stereo not given)
Result: 1.05

Molecule: N#C[S-].[Nd+3].c1cnc2c(c1)ccc1cccnc12.c1cnc2c(c1)ccc1cccnc12.c1cnc2c(c1)ccc1cccnc12
Result: 93.2

Molecule: COc1cc(CC(=O)N2CC2)cc(OC)c1OC
Result: 13.9

Molecule: O=C(OCc1ccccc1)C(C(Cl)c1ccccc1)N(Cc1ccccc1)Cc1ccccc1 (stereo not given)
Result: 67.7

Molecule: CC1=C2C(=C[C@@](C)(CO)[C@@H]2O)C(=O)[C@](C)(O)C12CC2
Result: -41

Molecule: O=[As]c1ccc(Cl)cc1Cl (stereo not given)
Result: 99.2

Asked: For the molecule CC1=C(N2CC2)C(=O)c2ccccc2C1=O , what growth inhibition is on record?
Given back: -8.05

Asked: Param item: CCCCCCCCCCCCCCCCP(=O)(O)OCC(N)C(=O)O (stereo not given)
Given back: 60.1

Asked: How about this molecule: O=c1c(O)c(-c2ccccc2)oc2ccccc12.[Pb]
Given back: 96.2

Asked: Please give the result for CC(=O)O[C@H]1CC[C@H]2[C@@H]3CC[C@H]4CC(=O)CC[C@@H]4[C@H]3CC[C@]12C too.
Given back: 61.5

Asked: Now consider Cc1c2ccccc2cc2ccccc12 and answer again.
Given back: 98.2

Asked: Please do the same for Cc1ccc(N=P(c2ccccc2)(c2ccccc2)c2ccccc2)cc1.[I][Hg][I] as well.
Given back: 98.3

Asked: What do we get for CC(C)C1(NC(=O)C2C=C3c4cccc5[nH]cc(c45)CC3N(C)C2)OC2(O)C3CCCN3C(=O)C(Cc3ccccc3)N2C1=O (stereo not given) ?
Given back: 96.8

====

- Measurement Protocol: NCI Yeast Anticancer Drug Screen. Data for the mec2-1 strain (AID 157)
- Particulars: S. cerevisiae mec2-1 strain, at 50.0 µM (retest, dose inferred, filed as 5.0), active compounds read high
About 79,000 compounds went through this panel and 15% of them were active in at least one assay; those are over-represented in the sample as a whole.
If the reported growth inhibition equals or exceeds 80%, assign T. If not, assign F.

Compound: CCN(CC)C1CC(O[C@H]2C[C@](O)(C(=O)CO)Cc3c(O)c4c(c(O)c32)C(=O)c2c(OC)cccc2C4=O)OC(C)C1O (stereo partly specified)
Label Value: T
--
Compound: Cc1cc(C)[n+](CCOc2ccc(/C(=C(/Cl)c3ccccc3)c3ccccc3)cc2)c(C)c1
Label Value: T
--
Compound: CCOP(=O)(OCC)/C(C#N)=C/c1ccccc1Cl
Label Value: F

Asked: Could you tell me if the measured growth inhibition of Nc1nc(N)c(-c2ccc(Cl)c(Cl)c2)c(CCc2ccc(CNC(=O)c3cc(S(=O)(=O)F)ccc3Cl)cc2)n1 reaches 80% or more?
Given back: F

Asked: Next compound: CN(C)C(=S)[S][Sb]([c]1ccccc1)[c]1ccccc1
Given back: T

Asked: Let us now turn to O=P(CP(=O)(c1ccccc1)c1ccccc1)(c1ccccc1)c1ccccc1.[CH3][Sn]([CH3])([Cl])[Cl]
Given back: F

src = PubChem BioAssay (NCI)
